Values were extracted from patent US20240392024A1.

# Study Target: T1, TNFR2-His (Sino Biological, 10417-H08H, NP_001057.1 Met1-Asp257, with multi-histidine tag expressed on … (human, UniProt P20333 23-257))
# T1 construct: range 1-257; Bought protein; also called recombinant human TNFR2 protein; TNFR2-His antigen; not shown: C-terminal multi-histidine tag
# T1 sequence (looked up): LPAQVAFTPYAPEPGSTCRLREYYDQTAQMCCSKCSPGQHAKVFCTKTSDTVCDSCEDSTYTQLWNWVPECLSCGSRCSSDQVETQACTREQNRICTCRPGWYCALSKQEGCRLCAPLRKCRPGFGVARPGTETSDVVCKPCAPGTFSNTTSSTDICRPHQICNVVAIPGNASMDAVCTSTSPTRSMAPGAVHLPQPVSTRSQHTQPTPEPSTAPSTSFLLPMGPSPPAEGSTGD
# Method: BLI, antibody captured on AHC probe, TNFR2 in solution
koff of 0.003 s⁻¹ or higher: condition met. Under 0.003 s⁻¹: condition not met.

human-mouse chimeric TNFR2 monoclonal antibody 27F6-hFc (antibody, V domains shown, Mouse V regions of clone 27F6 with human constant regions) VH: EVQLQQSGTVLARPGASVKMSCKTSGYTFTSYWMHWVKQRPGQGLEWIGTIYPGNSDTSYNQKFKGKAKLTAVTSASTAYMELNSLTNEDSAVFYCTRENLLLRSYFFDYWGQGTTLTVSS VL: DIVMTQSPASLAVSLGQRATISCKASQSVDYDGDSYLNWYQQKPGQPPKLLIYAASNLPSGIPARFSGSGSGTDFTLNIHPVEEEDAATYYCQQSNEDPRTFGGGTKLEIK	condition met

Is koff for human-mouse chimeric TNFR2 monoclonal antibody 7F2-hFc (antibody, V domains shown, Mouse V regions of clone 7F2 with human constant regions) VH: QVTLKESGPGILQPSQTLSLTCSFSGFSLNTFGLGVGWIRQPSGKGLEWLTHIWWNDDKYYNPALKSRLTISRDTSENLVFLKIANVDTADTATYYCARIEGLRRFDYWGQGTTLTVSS VL: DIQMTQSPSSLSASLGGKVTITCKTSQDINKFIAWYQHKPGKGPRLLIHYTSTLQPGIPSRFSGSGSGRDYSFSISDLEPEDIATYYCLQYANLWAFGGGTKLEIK at or above 0.003 s⁻¹?
condition met

Entry human-mouse chimeric TNFR2 monoclonal antibody 29A1-hFc (antibody, V domains shown, Mouse V regions of clone 29A1 with human constant regions) VH: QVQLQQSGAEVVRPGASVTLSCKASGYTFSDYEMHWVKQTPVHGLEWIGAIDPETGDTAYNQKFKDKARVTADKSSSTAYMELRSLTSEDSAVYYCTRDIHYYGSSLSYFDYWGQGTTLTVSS VL: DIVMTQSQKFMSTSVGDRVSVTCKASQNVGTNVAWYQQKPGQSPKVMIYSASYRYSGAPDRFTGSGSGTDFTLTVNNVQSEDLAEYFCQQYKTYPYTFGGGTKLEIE : is its koff no less than 0.003 s⁻¹?
condition met

Quick check: does human-mouse chimeric TNFR2 monoclonal antibody 33C12-hFc (antibody, V domains shown, Mouse V regions of clone 33C12 with human constant regions; also called human-mouse chimeric 33C12 antibody) VH: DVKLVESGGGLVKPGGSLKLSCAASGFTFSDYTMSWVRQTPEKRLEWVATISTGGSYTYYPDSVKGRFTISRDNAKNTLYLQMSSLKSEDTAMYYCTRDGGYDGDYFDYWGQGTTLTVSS VL: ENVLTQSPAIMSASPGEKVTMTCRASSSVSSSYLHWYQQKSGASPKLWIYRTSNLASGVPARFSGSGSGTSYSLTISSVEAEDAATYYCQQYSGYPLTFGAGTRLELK have koff greater than or equal to 0.003 s⁻¹?
condition not met
